Molecular target: HLA-A*11:01
Experiment: IEDB peptide-MHC binding, purified MHC/competitive/radioactivity; bounds were set here for any values at or beyond the usual limits of such assays
Conditions: source organism: Influenza A virus (A/Puerto Rico/8/1934(H1N1))
pIC50: −log10 of the molar value.
Reported pIC50 values are given for each entry in this list.
outcome_measure: pIC50

1. ILWILDRLFFK | 7.68
2. STDTVDTVLEK | 7.05
3. RMNYYWTLLK | 8.59
4. AVGKEFNKLEK | 6.89
5. WILDRLFFK | 8.12
6. KTRPILSPLTK | 6.92
7. GIAPLQLGK | 7.52
8. GIHHPSNSK | 6.37
9. GTHPSSSAGLK | 7.03
10. SVRNGTYDYPK | 7.37
11. RVLSFIKGTK | 7.14
12. TMVMELVRMIK | 6.71
13. RTLDFHDSNVK | 7.30
14. LILRGSVAHK | 6.73
15. ITNKVNSVIEK | 7.05
16. NIQFTAVGK | 6.74
17. CIYRRFKYFLK | 6.64
